Target: T1, human IL-36R (human, UniProt Q9HB29 20-575)
T1 sequence (looked up): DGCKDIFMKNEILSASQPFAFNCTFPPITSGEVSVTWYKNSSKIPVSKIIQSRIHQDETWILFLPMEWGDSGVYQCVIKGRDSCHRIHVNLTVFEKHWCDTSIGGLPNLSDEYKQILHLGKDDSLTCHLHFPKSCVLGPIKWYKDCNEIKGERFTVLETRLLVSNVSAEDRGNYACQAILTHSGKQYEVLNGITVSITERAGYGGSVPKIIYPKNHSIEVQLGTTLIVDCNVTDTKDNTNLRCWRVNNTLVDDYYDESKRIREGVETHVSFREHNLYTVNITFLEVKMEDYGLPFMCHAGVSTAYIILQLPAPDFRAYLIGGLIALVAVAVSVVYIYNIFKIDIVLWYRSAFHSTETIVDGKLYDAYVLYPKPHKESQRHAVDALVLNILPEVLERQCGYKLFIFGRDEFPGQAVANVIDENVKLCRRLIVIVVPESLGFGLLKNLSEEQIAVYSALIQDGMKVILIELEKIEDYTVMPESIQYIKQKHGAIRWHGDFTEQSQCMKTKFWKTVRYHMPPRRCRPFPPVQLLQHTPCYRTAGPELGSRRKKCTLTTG
Assay: cell-based or functional assay
readout-type: IC50 of GM-CSF release, NCI/ADR-RES cells stimulated with IL-36β (µg/mL)
A number alone suffices; assume µg/mL.

humanized anti-IL-36R antibody 900513 (antibody, V domains shown, IgG1 (vector with L234A, L235A) and human kappa) VH: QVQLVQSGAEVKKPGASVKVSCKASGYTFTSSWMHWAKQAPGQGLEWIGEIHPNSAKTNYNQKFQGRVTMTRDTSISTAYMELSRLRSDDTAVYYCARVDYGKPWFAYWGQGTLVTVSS VL: EIVLTQSPGTLSLSPGERATLSCSASSSVSSSYLHWYQQKPGQAPRLWIYSTSNRATGIPDRFSGSGSGTDFTLTISRLEPEDFATYYCQQFQSSPLTFGQGTKLEIK
0.0184
humanized anti-IL-36R antibody 900534 (antibody, V domains shown, IgG1 (vector with L234A, L235A) and human kappa) VH: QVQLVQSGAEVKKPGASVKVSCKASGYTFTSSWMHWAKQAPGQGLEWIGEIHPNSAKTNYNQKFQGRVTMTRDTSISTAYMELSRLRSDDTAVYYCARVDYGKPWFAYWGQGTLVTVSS VL: QIVLTQSPGTLSLSPGERATLSCRASSSVSSSYLHWYQQKPGQAPRLLIYSTSSRATGIPDRFSGSGSGTDFTLTISRLEPEDFATYYCQQFQSSPLTFGQGTKLEIK
0.0186

Consider the record given below.
# input Requested field: IC50 of GM-CSF release, NCI/ADR-RES cells stimulated with IL-36β. Item: anti-IL-36R chimeric antibody 900497 (antibody, V domains shown, Human-mouse chimera: human IgG1 heavy constant region with L234A and L235A (Eu numbering), human kappa light constant region) VH: QVQLQQTGSVLVRPGTSVKLSCKASGYTFTSSWMHWAKQRPGQGLEWIGEIHPNSAKTNYNEKFKGKATLTVDTFSSTAYVDLSSLASEDSAVYYCARVDYGKPWFAYWGQGTLVTVSA VL: QIVLTQSPTIMSASPGERVTMTCSASSSVSSSYLHWYQQKPGSSPKLWIYSTSNLASGVPARFSGSGSGTSYSLTINSMEAEDAATYYCQQFQSSPLTFGAGTKLGLK
# output 0.0224

Numbers sourced from patent EP4289863A9.
